- METHOD: Cytotoxicity against human RD cells infected with CA6 incubated for 3 days by CellTiter 96 luminescent cell viability assay
- Format: toxicity, cell-based
- CONDITION_DESCRIPTION: time 3 day
label 1 if CC50 at 72 h is below 1000 nM. label 0 if not; exact matches included in label 0.

# example entries with known answers
>>> df
                            chemical_string  class_label
0  O=C(c1ccc(C(F)(F)F)cc1O)c1[nH]c(Cl)c(Cl)c1-n1c(C(=O)c2ccc(C(F)(F)F)cc2O)cc(Cl)c1Sc1cccs1      label 1
1  O=C(c1ccc(C(F)(F)F)cc1O)c1[nH]c(Cl)c(Cl)c1-n1c(C(=O)c2ccc(C(F)(F)F)cc2O)cc(Cl)c1SCCCO      label 0
2  C#C[C@@]1(O)[C@H](O)[C@@H](CO)O[C@H]1n1ccc2c(N)ncnc21      label 0
3  O=C(c1ccc(C(F)(F)F)cc1O)c1[nH]c(Cl)c(Cl)c1-n1c(C(=O)c2ccc(C(F)(F)F)cc2O)cc(Cl)c1Sc1ccccn1      label 1
4  O=C(c1ccc(C(F)(F)F)cc1O)c1[nH]c(Cl)c(Cl)c1-n1c(C(=O)c2ccc(C(F)(F)F)cc2O)cc(Cl)c1SCc1ccccn1      label 1

**Query** Item Cn1nnnc1Sc1c(Cl)cc(C(=O)c2ccc(C(F)(F)F)cc2O)n1-c1c(C(=O)c2ccc(C(F)(F)F)cc2O)[nH]c(Cl)c1Cl : CC50 at 72 h beneath 1000 nM, strictly?
**Result** label 0

**Query** Decide: CC50 at 72 h of O=C(c1ccc(C(F)(F)F)cc1O)c1[nH]c(Cl)c(Cl)c1-n1c(C(=O)c2ccc(C(F)(F)F)cc2O)cc(Cl)c1Sc1nc2ccccc2o1 strictly below 1000 nM?
**Result** label 0

**Query** CC50 at 72 h strictly < 1000 nM for this molecule? O=C(c1ccc(C(F)(F)F)cc1O)c1[nH]c(Cl)c(Cl)c1-n1c(C(=O)c2ccc(C(F)(F)F)cc2O)cc(Cl)c1Sc1ncccn1
**Result** label 1

====

CC50 at 168 h values by entry
- METHOD: Cytotoxicity against […] infected with JEV-SA14 incubated for 7 days by CellTiter 96 luminescent cell viability assay
- Type: toxicity, cell-based
- CONDITION_DESCRIPTION: time 7 day
Quick reminder: number only, in nM, skip the unit.

Please review the entries below; each comes with its answer.
>>> df
                            chemical_string  number
0  O=C(c1ccc(C(F)(F)F)cc1O)c1[nH]c(Cl)c(Cl)c1-n1c(C(=O)c2ccc(C(F)(F)F)cc2O)cc(Cl)c1SCCO    1450
1  O=C(c1ccc(C(F)(F)F)cc1O)c1[nH]c(Cl)c(Cl)c1-n1c(C(=O)c2ccc(C(F)(F)F)cc2O)cc(Cl)c1Sc1nc2ccccc2s1    1180
2  O=C(c1ccc(C(F)(F)F)cc1O)c1[nH]c(Cl)c(Cl)c1-n1c(C(=O)c2ccc(C(F)(F)F)cc2O)cc(Cl)c1Sc1cnccn1    1210
3  Cn1nnnc1Sc1c(Cl)cc(C(=O)c2ccc(C(F)(F)F)cc2O)n1-c1c(C(=O)c2ccc(C(F)(F)F)cc2O)[nH]c(Cl)c1Cl    2480

**Query** Endpoint output: CC50 at 168 h of O=C(c1ccc(C(F)(F)F)cc1O)c1[nH]c(Cl)c(Cl)c1-n1c(C(=O)c2ccc(C(F)(F)F)cc2O)cc(Cl)c1Sc1ccccn1 . Value?
**Result** 230

**Query** Bench note: what CC50 at 168 h did O=C(c1ccc(C(F)(F)F)cc1O)c1[nH]c(Cl)c(Cl)c1-n1c(C(=O)c2ccc(C(F)(F)F)cc2O)cc(Cl)c1Sc1nc2cccnc2[nH]1 show?
**Result** 19200
